# TESTED SYSTEM: Histamine H1 receptor (Homo sapiens)
# Sequence (P35367 whole entry): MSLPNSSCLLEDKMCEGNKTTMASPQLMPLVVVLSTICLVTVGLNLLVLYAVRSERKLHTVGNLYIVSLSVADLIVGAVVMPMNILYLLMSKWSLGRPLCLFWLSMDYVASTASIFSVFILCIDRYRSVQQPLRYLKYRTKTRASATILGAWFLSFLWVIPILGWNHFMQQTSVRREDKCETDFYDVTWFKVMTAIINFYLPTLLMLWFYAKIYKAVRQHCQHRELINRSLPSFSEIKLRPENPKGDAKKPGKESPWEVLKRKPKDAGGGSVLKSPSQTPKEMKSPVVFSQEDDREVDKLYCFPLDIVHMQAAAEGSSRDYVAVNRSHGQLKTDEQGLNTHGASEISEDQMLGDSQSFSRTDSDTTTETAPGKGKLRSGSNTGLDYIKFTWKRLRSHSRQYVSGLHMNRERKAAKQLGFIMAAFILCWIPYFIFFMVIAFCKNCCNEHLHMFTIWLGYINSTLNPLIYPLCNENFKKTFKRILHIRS
pKi: −log10 of the molar value.
ASSAY ENDPOINT: pKi

STRUCTURE STRING	pKi
c1ccc(Cc2ccccc2OCCCN2CCCC2)cc1	8.00
O=C(O)/C=C/C(=O)O.c1ccc(Cc2ccccc2OC2CCNCC2)cc1	7.80
c1ccc(Cc2ccccc2OCCCN2CCCCC2)cc1	7.90

src = ChEMBL document CHEMBL3865843
